Target: T1, soluble recombinant HLA-DR2 molecules (MHC class II HLA-DR2 protein) (human)
T1 construct: Soluble, empty protein from Drosophila S2 cells, captured on plates by antibody LB3.1; also called MHC class II DR2 protein; recombinant HLA-DR2 protein
Assay: competition ELISA on soluble HLA-DR2; competitor biotinylated Cop 1 (1.5 µM)
IC50 values, listed per item

[in] Value lookup for IC50; key = EAAKYAAYKAAAAAA [synthetic peptide #85]
[out] > 1000 µM

[in] Value lookup for IC50; key = EAKAYAAYKAAAAAA [synthetic peptide #86]
[out] > 1000 µM

[in] Value lookup for IC50; key = EAAAYKAYKAAAAAA [synthetic peptide #99]
[out] > 150 µM

[in] Value lookup for IC50; key = AAEKYAAYKAAAAAA [synthetic peptide #77]
[out] > 1000 µM
